Task for the reader: assign each of the following compounds its reported relative viability EC50.
# System: Caco-2
# test-summary: relative viability EC50 (midpoint between 100% and the lowest measured viability); higher = less toxic
# condition-notes: 72 h
Structures can show the parent of a compound that is named as a salt.

Query `COC(=O)Nc1ccc(-c2nc(N3CCOCC3)c3cnn(C4CCN(C(=O)OC)CC4)c3n2)cc1` yields relative viability EC50 of 1.38 µM

Query `CC(=O)c1ccc2c(c1)N(CCCN(C)C)c1ccccc1S2` yields relative viability EC50 of > 10 µM

Query `O=C(Nc1cc(C(F)(F)F)cc(C(F)(F)F)c1)c1cc(Cl)ccc1O` yields relative viability EC50 of 0.436 µM

Query `NC1(Cc2ccc(Cl)cc2)CCN(c2ncnc3[nH]ccc23)CC1` yields relative viability EC50 of > 10 µM

Query `O=C(/C=C/c1ccc2ccccc2n1)c1ccncc1` yields relative viability EC50 of 2.09 µM

Query `O=C(CCCN1CCC(O)(c2ccc(Cl)cc2)CC1)c1ccc(F)cc1` yields relative viability EC50 of > 10 µM

Query `CC[C@@H]1C(=O)OC[C@@H]1Cc1cncn1C` yields relative viability EC50 of > 10 µM

Query CCC(NC(C)C)C(O)c1ccc(O)c2[nH]c(=O)ccc12 (stereo not drawn) yields relative viability EC50 of > 10 µM

Query `CCCCNc1ncc2c(-c3ccc(CN4CCN(C)CC4)cc3)cn([C@H]3CC[C@H](O)CC3)c2n1` yields relative viability EC50 of 2.62 µM

Query `N[C@@H](CC(=O)N1CCn2c(nnc2C(F)(F)F)C1)Cc1cc(F)c(F)cc1F` yields relative viability EC50 of > 10 µM

Query CCS(=O)(=O)N(C)[C@@H]1c2cc(C#N)ccc2OC(C)(C)[C@H]1O.CCS(=O)(=O)N(C)[C@H]1c2cc(C#N)ccc2OC(C)(C)[C@@H]1O (racemic) [chromanol-(+/-)] yields relative viability EC50 of > 10 µM

Query Nc1nc(NC2CC2)c2ncn([C@H]3C=C[C@@H](CO)C3)c2n1 [ABACAVIR SULFATE] yields relative viability EC50 of > 10 µM

Query `CC[C@@]1(O)C(=O)OCc2c1cc1n(c2=O)Cc2cc3c(CN(C)C)c(O)ccc3nc2-1` yields relative viability EC50 of 0.748 µM

Query `O=C(O)c1ccccc1C(=O)Nc1ccc(-c2ccccc2)cc1` yields relative viability EC50 of > 10 µM

Query `NC(=O)c1noc([C@H](CCCC2CCCCC2)CC(=O)NO)n1` yields relative viability EC50 of > 10 µM

Query `CN(C)CCCN1c2ccccc2Sc2ccc(Cl)cc21` yields relative viability EC50 of > 10 µM

Query O=C1NC(=O)[C@@H](c2cn3c4c(cccc24)CCC3)[C@@H]1c1c[nH]c2ccccc12 [tivantinib] yields relative viability EC50 of 0.688 µM

Query CCCCCCCC/C=C\CCCCCCCC(=O)NCCO [oleoylethanolamide] yields relative viability EC50 of > 10 µM
